Target: ATF5 (Homo sapiens, UniProt Q9Y2D1)
Construct: made in house
Sequence (Q9Y2D1 208-271 limits assumed): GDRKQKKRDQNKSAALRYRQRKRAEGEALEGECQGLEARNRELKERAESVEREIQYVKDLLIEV
Test: Direct-binding FRET assay
Details: 4°C; C-terminal fluorescein design as donor, TAMRA target titrated; read-out: Kd
Where no end group is shown, it is not given here.
recordedMetric: Kd (µM)
All answers are understood in µM, so give the number only.

stdin: Tell me the measured Kd of NQIKTLRTRLSKLRKDNLQLEKDIANLERKAKDLRAEKEQLEYEL [ATF4-d1] , please.
stdout: 0.0355

###

Biological target: NFE2 (Homo sapiens, UniProt Q16621)
Construct: made in house
Sequence (Q16621 266-329 limits assumed): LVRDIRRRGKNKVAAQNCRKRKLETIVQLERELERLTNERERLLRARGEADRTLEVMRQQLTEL
Assay: Direct-binding FRET assay
Conditions: 23°C; C-terminal rhodamine design; repeat 1; read-out: Kd
pKd: −log10 of the molar value. Where no end group is shown, it is not given here.
recordedMetric: pKd

stdin: If you can, please state the reported pKd value of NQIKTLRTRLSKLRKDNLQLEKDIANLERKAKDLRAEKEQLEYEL [ATF4-d1] .
stdout: 6.00 to 6.70

###

target: NFE2L2 (Homo sapiens, UniProt Q16236); construct: made in house; assay: Direct-binding FRET assay; conditions: 23°C; C-terminal rhodamine design; repeat 1; read-out: Kd
Sequence (Q16236 497-560 limits assumed): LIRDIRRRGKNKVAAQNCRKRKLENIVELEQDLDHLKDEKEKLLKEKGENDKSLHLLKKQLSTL
Where no end group is shown, it is not given here.
recordedMetric: Kd

stdin: Checklist item: Kd tested on NFE2L2 (Homo sapiens, UniProt Q16236), entry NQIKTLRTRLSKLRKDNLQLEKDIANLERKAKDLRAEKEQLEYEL [ATF4-d1] , value?
stdout: > 5 µM
